Target: K2P4.1(TRAAK) L147F (Mus musculus, UniProt O88454, L147F)
Sequence (O88454 1-398 L147F): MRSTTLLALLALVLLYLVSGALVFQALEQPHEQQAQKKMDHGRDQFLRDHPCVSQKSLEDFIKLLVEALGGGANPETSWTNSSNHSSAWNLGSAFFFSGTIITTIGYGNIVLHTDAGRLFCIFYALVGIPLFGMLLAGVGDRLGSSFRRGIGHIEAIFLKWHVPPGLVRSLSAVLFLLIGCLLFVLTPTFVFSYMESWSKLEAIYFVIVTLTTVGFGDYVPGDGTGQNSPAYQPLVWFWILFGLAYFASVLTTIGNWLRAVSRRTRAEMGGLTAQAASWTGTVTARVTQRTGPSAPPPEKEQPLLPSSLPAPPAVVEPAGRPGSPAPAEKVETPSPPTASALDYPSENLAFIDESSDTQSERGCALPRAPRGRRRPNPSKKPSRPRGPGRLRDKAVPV
Assay: TEVC of K2P4.1(TRAAK) mutant L147F
Settings: Xenopus oocytes
measurement kind: pEC50
Interpret pEC50 as the negative base-10 log of the concentration measured in mol/L.

Checklist item: pEC50 tested on K2P4.1(TRAAK) L147F (Mus musculus, UniProt O88454, L147F), entry `c1ccc(-c2nnn[nH]2)c(Nc2cccc3c2CCCC3)c1` , value?
4.57

----------
Target: TREK-1/AAK M2-C (Mus musculus, UniProt O88454+P97438)
Sequence (P97438 16-167): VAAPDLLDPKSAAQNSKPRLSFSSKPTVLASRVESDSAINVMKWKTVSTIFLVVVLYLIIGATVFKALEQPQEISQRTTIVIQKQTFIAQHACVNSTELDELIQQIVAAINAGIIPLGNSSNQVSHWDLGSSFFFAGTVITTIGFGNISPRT
Sequence (O88454 115-398): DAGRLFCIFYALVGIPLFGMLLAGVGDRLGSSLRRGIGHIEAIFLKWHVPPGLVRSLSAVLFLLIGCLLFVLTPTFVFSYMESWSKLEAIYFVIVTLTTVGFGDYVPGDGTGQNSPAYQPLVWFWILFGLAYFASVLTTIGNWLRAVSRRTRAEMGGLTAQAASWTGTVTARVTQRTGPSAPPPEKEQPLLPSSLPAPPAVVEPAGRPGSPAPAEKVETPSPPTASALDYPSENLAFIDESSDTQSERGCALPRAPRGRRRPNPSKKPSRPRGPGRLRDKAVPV
Experiment: TEVC of chimera TREK-1/AAK M2-C
Details: Xenopus oocytes
measurement kind: EC50 (µM)
Quick note: give the figure in µM, leave out the unit.

Sample `CC1(C)c2cc(Cl)ccc2N(CCc2nn[nH]n2)c2ccc(Cl)cc21` — what was its EC50?
42

----------
Biological target: TREK-1/AAK M3-C (Mus musculus, UniProt O88454+P97438)
Construct: Trp199 (TREK-1/AAK M3-C); chimera built by Gibson assembly
Sequence (P97438+O88454 fused with the stated changes, form open): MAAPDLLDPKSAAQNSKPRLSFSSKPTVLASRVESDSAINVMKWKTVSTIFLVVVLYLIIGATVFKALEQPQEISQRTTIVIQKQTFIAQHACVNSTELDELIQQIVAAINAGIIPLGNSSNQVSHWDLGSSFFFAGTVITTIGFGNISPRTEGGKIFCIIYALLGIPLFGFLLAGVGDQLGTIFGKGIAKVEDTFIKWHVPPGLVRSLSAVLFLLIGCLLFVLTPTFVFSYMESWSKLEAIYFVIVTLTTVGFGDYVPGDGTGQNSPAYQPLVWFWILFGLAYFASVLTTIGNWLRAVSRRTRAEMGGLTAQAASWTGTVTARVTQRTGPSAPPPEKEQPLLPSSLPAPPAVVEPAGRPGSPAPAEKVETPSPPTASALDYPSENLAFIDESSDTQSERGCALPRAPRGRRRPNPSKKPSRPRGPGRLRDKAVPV
Assay: TEVC of chimera TREK-1/AAK M3-C
Conditions: Xenopus oocytes
measurement kind: pEC50
API: returns pEC50 as number; meaning -log10 of concentration in mol/L.

c1ccc(-c2nnn[nH]2)c(Nc2cccc3c2CCCC3)c1 [BL-1249] :: 4.55

Now for a further compound.
Report pEC50 for CC1(C)c2cc(Cl)ccc2N(CCc2nn[nH]n2)c2ccc(Cl)cc21 [ML67-33] please.
4.31
